Molecular target: PTK6 (human)
Assay: KINOMEscan competition binding
Conditions: compound 10.0 µM
reported_endpoint: kinase still bound, per cent of control

>  <structure_smiles_string>
CC(=O)c1c(-c2ccncc2)[nH]c(-c2ccncc2)c1C

>  <value_reported>
no effect (inactive)

$$$$
>  <structure_smiles_string>
Cc1ccc(NC(=O)c2cccc(N3CCCCC3)c2)cc1-c1ccc(C(=O)NCC2CC2)cc1

>  <value_reported>
no effect (inactive)

$$$$
>  <structure_smiles_string>
Nc1ncnc2c1c(-c1cccc(O)c1)cn2C1CCNCC1

>  <value_reported>
0%

$$$$
>  <structure_smiles_string>
Cc1cc(Nc2cc(N3CCN(C)CC3)nc(Sc3ccc(NC(=O)C4CC4)cc3)n2)[nH]n1

>  <value_reported>
no effect (inactive)

$$$$
>  <structure_smiles_string>
O=C1Nc2ccccc2/C1=C/c1ccc[nH]1

>  <value_reported>
no effect (inactive)

$$$$
>  <structure_smiles_string>
N#Cc1ccc(-c2cnc3[nH]cc(NC(=O)c4cccnc4)c3c2)cc1

>  <value_reported>
no effect (inactive)

$$$$
>  <structure_smiles_string>
CCS(=O)(=O)Nc1ccc2c(c1)[C@H](/C(=N/c1ccc(CN3CCCCC3)cc1)c1ccccc1)C(=O)N2

>  <value_reported>
1.8%

$$$$
>  <structure_smiles_string>
Cc1ccc(O)cc1Nc1ccnc(Nc2cccc(C(N)=O)c2)n1

>  <value_reported>
0%

$$$$
>  <structure_smiles_string>
c1ccc(-c2n[nH]cc2-c2ccnc3ccccc23)nc1

>  <value_reported>
no effect (inactive)

$$$$
>  <structure_smiles_string>
O=C(Nc1n[nH]c2nc(-c3cccc(O)c3)ccc12)C1CC1

>  <value_reported>
no effect (inactive)

$$$$
>  <structure_smiles_string>
NC(=O)c1ccc(-c2cc(C(N)=O)c(N)c(-c3ccc(S(N)(=O)=O)cc3)c2)cc1

>  <value_reported>
no effect (inactive)

$$$$
>  <structure_smiles_string>
Cc1ccc(C(=O)Nc2cccc(C(C)(C)C)c2)cc1-c1ccc(C(=O)NCC2CC2)cc1

>  <value_reported>
no effect (inactive)

$$$$
>  <structure_smiles_string>
NC(=O)c1ccc(Nc2cc(-c3ccc(F)cc3)[nH]n2)cc1

>  <value_reported>
no effect (inactive)

$$$$
